- Test system: SW-620 colon
- test name: NCI tumour cell line growth inhibition, 48 h
The reader will find reported TGI values listed item by item below.
Give the number; µM is assumed, so skip it.

Past entries and their recorded results:
[[record]]
compound = "CCSc1ccc2c(c1)N(CCCN1CCN(C)CC1)c1ccccc1S2"
measured_endpoint = "TGI"
recorded_number = 3.65

[[record]]
compound = "O=[N+]([O-])c1cccc2nc3ccccc3c(NCCO)c12"
measured_endpoint = "TGI"
recorded_number = 0.0014

[[record]]
compound = "CCN(CC)CCn1c(=O)c2ccccc2n2c3c(=O)n(C)c(=O)n(C)c3nc12"
measured_endpoint = "TGI"
recorded_number = 16.1


Let us examine a further case.
*Q* What value of measured TGI is listed for COc1cc([C@@H]2c3cc4c(cc3[C@@H](NC(=O)c3cccc(N)c3)C3COC(=O)[C@@H]32)OCO4)cc(OC)c1O (some centres undefined) ?
*A* 35
